assay: Antiproliferative activity against human MKN28 cells after 2 days by sulforhodamine B assay; assay type: functional; conditions: MKN-28, 48 h
ENDPOINT NAME: log10 GI50 (log10 of the value in µM)
// stored as log10 of GI50 expressed in µM

Solved entries (count: 4):
COc1cccc2c1C(=O)c1c(O)c3c(c(O)c1C2=O)C[C@@](O)(C(=O)CO)C[C@@H]3O[C@H]1C[C@H](N)[C@H](O)[C@H](C)O1 = -0.62
COc1ccc(/C=C/C(=O)OCCCCNc2ccnc3cc(Cl)ccc23)cc1 = 0.82
O=C(/C=C/c1ccccc1)NCCCCNc1ccnc2cc(Cl)ccc12 = 1.21
COc1ccc(/C=C/C(=O)NCCCCNc2ccnc3cc(Cl)ccc23)cc1 = 1.23

The reported log10 GI50 of the molecule O=C(/C=C/c1cccc(F)c1)NCCCCNc1ccnc2cc(Cl)ccc12 was 1.18

---

Parameter: GI50 at 48 h. Scope: all listed entries.
test: Antiproliferative activity against human HFF1 cells after 2 days by sulforhodamine B assay; type: cell-based, HFF-1

O=C(/C=C/c1cccc([N+](=O)[O-])c1)NCCCCNc1ccnc2cc(Cl)ccc12 = > 100 µM
COc1ccc(/C=C/C(=O)NCCCCNc2ccnc3cc(Cl)ccc23)cc1 = > 100 µM
COc1cccc2c1C(=O)c1c(O)c3c(c(O)c1C2=O)C[C@@](O)(C(=O)CO)C[C@@H]3O[C@H]1C[C@H](N)[C@H](O)[C@H](C)O1 = > 400 µM

The record that follows has no GI50 at 48 h shown yet.
The reported GI50 at 48 h of the compound CCN(CC)CCCC(C)Nc1ccnc2cc(Cl)ccc12 (centres undefined) was > 100 µM

---

biological target: Receptor tyrosine-protein kinase erbB-2 (Homo sapiens, UniProt P04626)
Sequence (P04626 whole entry): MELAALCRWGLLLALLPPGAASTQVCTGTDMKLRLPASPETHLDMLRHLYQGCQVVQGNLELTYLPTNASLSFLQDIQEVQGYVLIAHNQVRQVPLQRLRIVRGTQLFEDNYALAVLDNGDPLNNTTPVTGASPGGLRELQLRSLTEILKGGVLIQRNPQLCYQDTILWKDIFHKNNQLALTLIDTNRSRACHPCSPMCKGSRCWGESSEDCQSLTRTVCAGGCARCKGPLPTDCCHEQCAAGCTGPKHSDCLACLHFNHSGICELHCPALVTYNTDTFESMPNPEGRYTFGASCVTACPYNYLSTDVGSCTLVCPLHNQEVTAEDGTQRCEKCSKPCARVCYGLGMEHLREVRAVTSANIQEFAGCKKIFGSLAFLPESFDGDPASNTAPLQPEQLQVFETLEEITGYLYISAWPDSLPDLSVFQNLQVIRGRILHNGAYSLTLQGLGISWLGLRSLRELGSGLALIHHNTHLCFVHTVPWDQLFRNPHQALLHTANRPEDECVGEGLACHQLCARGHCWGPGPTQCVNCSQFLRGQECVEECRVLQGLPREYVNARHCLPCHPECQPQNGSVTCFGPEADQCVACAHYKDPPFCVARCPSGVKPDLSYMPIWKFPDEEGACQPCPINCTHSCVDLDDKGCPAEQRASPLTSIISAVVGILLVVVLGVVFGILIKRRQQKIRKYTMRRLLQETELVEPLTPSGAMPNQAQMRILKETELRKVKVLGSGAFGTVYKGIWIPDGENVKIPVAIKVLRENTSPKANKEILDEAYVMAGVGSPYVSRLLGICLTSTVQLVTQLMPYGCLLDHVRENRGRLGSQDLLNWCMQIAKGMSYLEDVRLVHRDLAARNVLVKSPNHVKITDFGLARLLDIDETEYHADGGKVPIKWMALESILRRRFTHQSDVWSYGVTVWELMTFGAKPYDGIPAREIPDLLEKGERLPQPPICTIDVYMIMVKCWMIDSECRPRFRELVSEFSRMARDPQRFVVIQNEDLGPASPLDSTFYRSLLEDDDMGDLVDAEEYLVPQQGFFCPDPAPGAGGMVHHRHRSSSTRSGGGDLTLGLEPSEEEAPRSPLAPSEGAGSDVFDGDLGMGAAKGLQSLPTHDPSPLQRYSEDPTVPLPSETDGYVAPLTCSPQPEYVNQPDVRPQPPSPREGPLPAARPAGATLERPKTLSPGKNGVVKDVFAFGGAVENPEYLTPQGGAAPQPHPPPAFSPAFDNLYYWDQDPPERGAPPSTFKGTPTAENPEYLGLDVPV
ENDPOINT NAME: IC50 (nM)
Supply the numeric figure in nM, leaving out any unit text.

Short answer on Receptor tyrosine-protein kinase erbB-2 (Homo sapiens, UniProt P04626) for CCOc1cc2ncc(C#N)c(Nc3ccc(OCc4ccccn4)cc3)c2cc1NC(=O)/C=C/CN(C)C , IC50: 59

---

experiment: Antiproliferative activity against human MKN28 cells after 2 days by sulforhodamine B assay; format: functional; settings: MKN-28, 48 h
ENDPOINT NAME: log10 GI50 (log10 of the value in µM)
// stored as log10 of GI50 expressed in µM

Solved entries (count: 3):
CC(C)c1ccc(/C=C/C(=O)NCCCCNc2ccnc3cc(Cl)ccc23)cc1 = 1.35
COc1ccc(/C=C/C(=O)NCCCCNc2ccncc2)cc1 = 1.93
CCN(CC)CCCC(C)Nc1ccnc2cc(Cl)ccc12 (stereo not given) = 1.65

The reported log10 GI50 of the compound O=C(/C=C/c1ccccc1[N+](=O)[O-])NCCCCNc1ccnc2cc(Cl)ccc12 was 1.18

The reported log10 GI50 of the compound CC(C)c1ccc(/C=C/C(=O)NCCCCNc2ccnc3ccccc23)cc1 was 0.74

---

assay: Antiproliferative activity against human HFF1 cells after 2 days by sulforhodamine B assay; assay type: cell-based, HFF-1
ENDPOINT NAME: GI50 at 48 h

Solved entries (count: 5):
CC(C)c1ccc(/C=C/C(=O)NCCCCNc2ccnc3cc(Cl)ccc23)cc1 = > 100 µM
COc1ccc(/C=C/C(=O)OCCCCNc2ccnc3cc(Cl)ccc23)cc1 = 75.2 µM
O=C(/C=C/c1ccccc1)NCCCCNc1ccnc2cc(Cl)ccc12 = > 100 µM
O=C(/C=C/c1cccc(F)c1)NCCCCNc1ccnc2cc(Cl)ccc12 = > 100 µM
CC(C)c1ccc(/C=C/C(=O)NCCCCNc2ccnc3ccccc23)cc1 = 39.1 µM

The reported GI50 at 48 h of the compound CC(C)c1ccc(/C=C/C(=O)NCCCCN2CCOCC2)cc1 was > 100 µM

---

assay: Antiproliferative activity against human HFF1 cells after 2 days by sulforhodamine B assay; type: cell-based, HFF-1
ENDPOINT NAME: GI50 at 48 h

CC(C)c1ccc(/C=C/C(=O)NCCCCCNc2ccnc3cc(Cl)ccc23)cc1 = > 100 µM
COc1ccc(/C=C/C(=O)NCCCCNc2ccncc2)cc1 = > 100 µM
O=C(/C=C/c1ccccc1[N+](=O)[O-])NCCCCNc1ccnc2cc(Cl)ccc12 = > 100 µM
O=C(/C=C/c1ccc(F)cc1)NCCCCNc1ccnc2cc(Cl)ccc12 = > 100 µM

The record that follows has no GI50 at 48 h shown yet.
The reported GI50 at 48 h of the compound O=C(/C=C/c1ccc(F)cc1)NCCCNc1ccnc2cc(Cl)ccc12 was 44.8 µM
